Entries annotated with measured IC50
Target: CDK12 complexed with Cyclin K (Homo sapiens (Human), UniProt Q9NYV4)
Sequence (Q9NYV4 whole entry): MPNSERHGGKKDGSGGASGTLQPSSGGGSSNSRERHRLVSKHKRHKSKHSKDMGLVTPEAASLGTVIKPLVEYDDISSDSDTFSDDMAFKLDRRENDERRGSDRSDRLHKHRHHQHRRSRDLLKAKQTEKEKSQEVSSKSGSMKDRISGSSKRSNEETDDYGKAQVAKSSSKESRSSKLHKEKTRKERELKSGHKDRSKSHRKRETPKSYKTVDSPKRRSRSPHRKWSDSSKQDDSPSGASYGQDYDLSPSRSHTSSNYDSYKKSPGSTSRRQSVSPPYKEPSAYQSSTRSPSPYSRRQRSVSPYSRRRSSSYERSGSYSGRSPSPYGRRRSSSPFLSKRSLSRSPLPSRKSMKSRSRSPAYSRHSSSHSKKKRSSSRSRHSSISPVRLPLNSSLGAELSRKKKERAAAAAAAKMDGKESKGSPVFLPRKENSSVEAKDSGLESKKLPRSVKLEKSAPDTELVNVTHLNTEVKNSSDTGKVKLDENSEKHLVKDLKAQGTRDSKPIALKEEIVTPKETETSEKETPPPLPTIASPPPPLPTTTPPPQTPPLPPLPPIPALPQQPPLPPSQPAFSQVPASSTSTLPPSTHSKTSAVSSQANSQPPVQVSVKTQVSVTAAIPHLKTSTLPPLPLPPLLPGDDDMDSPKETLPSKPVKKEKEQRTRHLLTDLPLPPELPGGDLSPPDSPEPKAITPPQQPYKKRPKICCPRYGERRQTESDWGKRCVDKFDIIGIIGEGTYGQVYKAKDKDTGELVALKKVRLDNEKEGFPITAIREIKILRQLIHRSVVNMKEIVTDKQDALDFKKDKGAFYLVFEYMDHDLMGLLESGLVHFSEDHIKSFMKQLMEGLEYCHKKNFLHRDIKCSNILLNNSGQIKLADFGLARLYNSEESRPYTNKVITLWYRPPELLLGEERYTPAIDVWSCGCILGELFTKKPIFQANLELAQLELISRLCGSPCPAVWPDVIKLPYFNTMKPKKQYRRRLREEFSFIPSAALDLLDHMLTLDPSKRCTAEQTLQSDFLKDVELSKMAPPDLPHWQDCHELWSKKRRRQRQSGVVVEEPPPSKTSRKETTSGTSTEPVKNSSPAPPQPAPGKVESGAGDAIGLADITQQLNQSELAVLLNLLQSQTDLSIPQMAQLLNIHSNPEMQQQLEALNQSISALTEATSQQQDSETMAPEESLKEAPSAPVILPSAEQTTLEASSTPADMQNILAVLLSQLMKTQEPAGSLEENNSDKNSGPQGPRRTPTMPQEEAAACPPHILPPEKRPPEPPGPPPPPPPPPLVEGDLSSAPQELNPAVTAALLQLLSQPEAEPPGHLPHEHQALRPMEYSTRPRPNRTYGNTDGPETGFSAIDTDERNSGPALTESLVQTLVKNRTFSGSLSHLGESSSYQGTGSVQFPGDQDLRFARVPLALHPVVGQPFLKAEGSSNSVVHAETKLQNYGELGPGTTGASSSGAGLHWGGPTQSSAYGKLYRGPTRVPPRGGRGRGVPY
Sequence (O75909 whole entry partner): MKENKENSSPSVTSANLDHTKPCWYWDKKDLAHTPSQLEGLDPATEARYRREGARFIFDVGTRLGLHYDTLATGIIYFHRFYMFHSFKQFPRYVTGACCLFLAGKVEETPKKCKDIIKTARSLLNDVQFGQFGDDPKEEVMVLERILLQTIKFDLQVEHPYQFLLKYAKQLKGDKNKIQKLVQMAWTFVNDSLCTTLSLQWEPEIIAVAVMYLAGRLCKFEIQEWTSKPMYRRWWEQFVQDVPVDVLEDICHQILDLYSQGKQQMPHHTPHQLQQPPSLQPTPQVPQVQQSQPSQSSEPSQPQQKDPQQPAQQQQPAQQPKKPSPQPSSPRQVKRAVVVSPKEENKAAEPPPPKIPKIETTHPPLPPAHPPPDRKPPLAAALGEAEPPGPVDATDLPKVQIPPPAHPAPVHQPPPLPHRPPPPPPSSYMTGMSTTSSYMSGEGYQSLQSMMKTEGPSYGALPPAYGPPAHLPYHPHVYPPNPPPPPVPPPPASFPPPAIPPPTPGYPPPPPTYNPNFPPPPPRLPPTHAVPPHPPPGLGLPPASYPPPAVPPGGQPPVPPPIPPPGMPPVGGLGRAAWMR
Assay: CDK enzymatic assay (HTRF, LANCE Ultra kinase assay)
Conditions: 60 minutes pre-incubation, 1 mM ATP

Incoming: # return IC50 of `N#Cc1cnc2c(c1)ncn2[C@H]1CCC[C@@H](Nc2ncc(C(F)(F)F)c(-c3cnn(CC(F)F)c3)n2)C1` (system: CDK12 complexed with Cyclin K (Homo sapiens (Human), UniProt Q9NYV4))
Outgoing: < 0.05 µM

More entries:
Incoming: # return IC50 of `N#Cc1cnc(N[C@@H]2CCC[C@H](n3cnc4cccnc43)C2)nc1-c1cnn(CC(F)F)c1` (system: CDK12 complexed with Cyclin K (Homo sapiens (Human), UniProt Q9NYV4))
Outgoing: < 0.05 µM

Incoming: # return IC50 of `N#Cc1cnc2c(c1)ncn2[C@H]1CCC[C@@H](Nc2ncc(C#N)c(-c3cnn(CCN4CCOCC4)c3)n2)C1` (system: CDK12 complexed with Cyclin K (Homo sapiens (Human), UniProt Q9NYV4))
Outgoing: 0.05 to 0.5 µM

Incoming: # return IC50 of `FC(F)Cn1cc(-c2nc(N[C@@H]3CCC[C@H](n4cnc5cnccc54)C3)ncc2C(F)(F)F)cn1` (system: CDK12 complexed with Cyclin K (Homo sapiens (Human), UniProt Q9NYV4))
Outgoing: < 0.05 µM

Incoming: # return IC50 of `N#Cc1cnc2c(c1)ncn2[C@H]1CCC[C@@H](Nc2ncc(C#N)c(-c3cnn(CCO)c3)n2)C1` (system: CDK12 complexed with Cyclin K (Homo sapiens (Human), UniProt Q9NYV4))
Outgoing: < 0.05 µM

Incoming: # return IC50 of `N#Cc1cnc2c(c1)ncn2[C@H]1CCC[C@@H](Nc2ncc(C#N)c(-c3cnn(C4CCC4)c3)n2)C1` (system: CDK12 complexed with Cyclin K (Homo sapiens (Human), UniProt Q9NYV4))
Outgoing: < 0.05 µM

Incoming: # return IC50 of `Cc1c(-c2nc(N[C@@H]3CCC[C@H](n4cnc5cccnc54)C3)ncc2C#N)cnn1C` (system: CDK12 complexed with Cyclin K (Homo sapiens (Human), UniProt Q9NYV4))
Outgoing: 0.05 to 0.5 µM

Incoming: # return IC50 of `N#Cc1cnc2c(c1)ncn2[C@H]1CC[C@@H](Nc2ncc(C(F)(F)F)c(-c3cnn(CC(F)F)c3)n2)C1` (system: CDK12 complexed with Cyclin K (Homo sapiens (Human), UniProt Q9NYV4))
Outgoing: > 0.5 µM

Incoming: # return IC50 of `Cn1cc(-c2cnc3c(c2)ncn3[C@H]2CCC[C@@H](Nc3ncc(C(F)(F)F)c(-c4cnn(CC(F)F)c4)n3)C2)cn1` (system: CDK12 complexed with Cyclin K (Homo sapiens (Human), UniProt Q9NYV4))
Outgoing: < 0.05 µM

Incoming: # return IC50 of `N#Cc1cnc2c(c1)ncn2[C@H]1CCC[C@@H](Nc2ncc(C#N)c(-c3cnn(CC(F)(F)F)c3)n2)C1` (system: CDK12 complexed with Cyclin K (Homo sapiens (Human), UniProt Q9NYV4))
Outgoing: < 0.05 µM

Incoming: # return IC50 of `Cn1ncc(-c2nc(N[C@@H]3CCC[C@H](n4cnc5cccnc54)C3)ncc2C#N)c1CO` (system: CDK12 complexed with Cyclin K (Homo sapiens (Human), UniProt Q9NYV4))
Outgoing: 0.05 to 0.5 µM

Incoming: # return IC50 of `Cc1c(Nc2nc(N[C@@H]3CCC[C@H](n4cnc5cc(C#N)cnc54)C3)ncc2C#N)cnn1C` (system: CDK12 complexed with Cyclin K (Homo sapiens (Human), UniProt Q9NYV4))
Outgoing: 0.05 to 0.5 µM

Incoming: # return IC50 of `Cc1c(-c2nc(N[C@@H]3CCC[C@H](n4cnc5cc(C#N)cnc54)C3)ncc2C#N)cnn1C` (system: CDK12 complexed with Cyclin K (Homo sapiens (Human), UniProt Q9NYV4))
Outgoing: < 0.05 µM

Incoming: # return IC50 of `N#Cc1cnc2c(c1)ncn2[C@H]1CCC[C@@H](Nc2ncc(C#N)c(-c3cnn(C4COC4)c3)n2)C1` (system: CDK12 complexed with Cyclin K (Homo sapiens (Human), UniProt Q9NYV4))
Outgoing: < 0.05 µM

Incoming: # return IC50 of `N#Cc1cccc2ncn([C@H]3CCC[C@@H](Nc4ncc(C(F)(F)F)c(-c5cnn(CC(F)F)c5)n4)C3)c12` (system: CDK12 complexed with Cyclin K (Homo sapiens (Human), UniProt Q9NYV4))
Outgoing: < 0.05 µM
